// provenance: PubChem BioAssay AID651581

Target: Hypoxia-inducible factor 1-alpha (Homo sapiens) (UniProt Q16665)
Sequence (Q16665 whole entry, looked up): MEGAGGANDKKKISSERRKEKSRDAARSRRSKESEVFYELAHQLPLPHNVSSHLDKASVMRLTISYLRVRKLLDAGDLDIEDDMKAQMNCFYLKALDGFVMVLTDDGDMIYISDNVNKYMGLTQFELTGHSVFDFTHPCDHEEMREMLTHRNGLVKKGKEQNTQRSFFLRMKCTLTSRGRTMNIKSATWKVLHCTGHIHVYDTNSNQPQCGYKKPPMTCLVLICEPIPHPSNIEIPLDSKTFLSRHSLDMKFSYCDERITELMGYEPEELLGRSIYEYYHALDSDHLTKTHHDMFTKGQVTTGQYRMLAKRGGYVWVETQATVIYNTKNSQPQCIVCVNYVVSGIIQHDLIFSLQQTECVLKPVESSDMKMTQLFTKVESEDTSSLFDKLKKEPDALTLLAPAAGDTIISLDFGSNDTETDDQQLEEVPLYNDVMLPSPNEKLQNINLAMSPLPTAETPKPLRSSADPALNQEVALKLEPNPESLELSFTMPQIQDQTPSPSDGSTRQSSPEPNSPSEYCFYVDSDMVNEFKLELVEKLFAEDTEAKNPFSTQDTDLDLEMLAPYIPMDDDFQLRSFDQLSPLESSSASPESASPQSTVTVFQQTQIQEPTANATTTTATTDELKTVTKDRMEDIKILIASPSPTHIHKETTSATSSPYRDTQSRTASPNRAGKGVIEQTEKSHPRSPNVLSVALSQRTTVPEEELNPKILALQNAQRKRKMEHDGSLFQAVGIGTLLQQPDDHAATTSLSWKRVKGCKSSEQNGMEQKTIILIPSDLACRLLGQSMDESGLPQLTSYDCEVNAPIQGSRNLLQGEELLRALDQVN
Assay: HIF-2a and HIF-1a reporter inhibition panel, dose response, selectivity assay for HIF-2a inhibitor project, cell-based, luminescence (AID 651581)
Settings: HIF-1a, mean of runs
The source made the active and inactive calls. No rule for the calls is given here.
Hi! Could you answer with just one of these? active, inactive

q: Fill in: this test's call for N#Cc1ccccc1COc1ccc(/C=C/C(=O)O)cc1 is ___
a: active

q: Fill in: this test's call for N#C/C(=C\c1ccccc1)C(=O)N(c1ccccn1)C1CCCCC1 is ___
a: inactive

q: Fill in: this test's call for COc1ccc(/C=C2\SC(=O)N(CCNC(=O)Cn3[nH]c(=O)c4ccccc4c3=O)C2=O)cc1 is ___
a: inactive

q: Fill in: this test's call for Cc1c(CCC(=O)N[C@@H](CC(C)C)C(=O)O)c(=O)oc2cc3oc4c(c3cc12)CCCC4 is ___
a: inactive

q: Fill in: this test's call for Cc1c(CCC(=O)NCCC(=O)O)c(=O)oc2c(C)c3oc4c(c3cc12)CCCC4 is ___
a: inactive

q: Fill in: this test's call for CC(=O)Nc1ccc(OCC(=O)c2ccc(C)cc2C)cc1 is ___
a: active

q: Fill in: this test's call for Cc1cc(SC#N)cc(C)c1NC(=O)CCl is ___
a: inactive

q: Fill in: this test's call for O=[N+]([O-])C1C(c2ccccc2)C12c1ccccc1-c1ccccc12 (stereo not drawn) is ___
a: active

q: Fill in: this test's call for O=C(CCCc1nc(-c2ccccc2Cl)no1)NC1CCCC1 is ___
a: inactive

q: Fill in: this test's call for Cc1ccc(NC(=S)NNc2ncc(C(F)(F)F)cc2Cl)cc1 is ___
a: active

q: Fill in: this test's call for CCOC(=O)c1c(C)nn(-c2ccc(NC(=O)c3c(C)noc3C)cc2)c1C is ___
a: inactive

q: Fill in: this test's call for C=C1C(=O)OC2CC3(C)OC3C3OC3C3=CC(OC3=O)C12 (stereo not drawn) is ___
a: active

q: Fill in: this test's call for COc1ccc(-n2nc3ccc(N)cc3n2)cc1 is ___
a: active

q: Fill in: this test's call for CCOc1ccc(-c2cc(CCCC(=O)Nc3cc(OC)ccc3OC)no2)cc1 is ___
a: inactive

q: Fill in: this test's call for O=C(Nc1ccccc1)c1nnsc1S(=O)(=O)c1ccc(Cl)cc1 is ___
a: active

q: Fill in: this test's call for CCOC(=O)Cn1cc(/C=C/[N+](=O)[O-])c2ccccc21 is ___
a: inactive

q: Fill in: this test's call for Cc1nc2cc(-c3ccc(Cl)cc3)nn2c(C)c1CCC(=O)NCc1ccco1 is ___
a: inactive

q: Fill in: this test's call for NNC(=O)COc1ccc(-c2nccc(-c3ccc(F)cc3)n2)cc1 is ___
a: inactive

q: Fill in: this test's call for COCCn1c(C)cc(C(=O)CSc2nnc(C)s2)c1C is ___
a: inactive

q: Fill in: this test's call for CC(=O)Nc1ccc(OS(=O)(=O)c2ccc(C)cc2C)cc1 is ___
a: active

q: Fill in: this test's call for COC(=O)Cc1ccc(NC(=O)c2ccc(C(C)(C)C)cc2)cc1 is ___
a: active

q: Fill in: this test's call for Cc1nc(SCc2cccc(C(=O)O)c2)nc2c1CCCC2 is ___
a: active

q: Fill in: this test's call for Cc1cc(C)cc(C(=O)NC(=S)Nc2ccc(-c3cc4ccccc4oc3=O)cc2)c1 is ___
a: inactive
